# STUDY TARGET: human cholecystokinin-2 receptor (CCK-2R) (Homo sapiens, UniProt P32239)
# Construct: host or cells: 1321-N1 cells (plasma membranes prepared by Evotec AG Hamburg)
# Sequence (P32239 1-447): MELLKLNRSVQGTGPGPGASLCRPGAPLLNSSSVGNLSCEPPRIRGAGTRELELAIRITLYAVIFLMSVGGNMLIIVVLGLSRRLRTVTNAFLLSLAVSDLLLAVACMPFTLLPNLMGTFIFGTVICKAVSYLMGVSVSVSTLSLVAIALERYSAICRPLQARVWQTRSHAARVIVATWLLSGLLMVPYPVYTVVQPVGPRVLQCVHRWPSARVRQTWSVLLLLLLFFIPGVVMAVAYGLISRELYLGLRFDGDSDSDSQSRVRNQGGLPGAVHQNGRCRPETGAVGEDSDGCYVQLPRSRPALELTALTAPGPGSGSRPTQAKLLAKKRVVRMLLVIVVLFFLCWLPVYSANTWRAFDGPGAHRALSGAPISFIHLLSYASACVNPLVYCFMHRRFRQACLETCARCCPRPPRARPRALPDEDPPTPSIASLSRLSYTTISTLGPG
# EXPERIMENT NOTES: In vitro potency on CCK-2R, whole cell functional assay (IP1 accumulation, IP-One HTRF)
# Assay type: cell-based
Starred links: 1 amine or outer side, 2 acyl side, 3 side chain; linkers in the order of their positions; H or OH if unused. Non-standard residues stand in square brackets, D forms with d. Residues, ends and D or L forms follow the SMILES beside them. *: point of attachment. Phe(4-CH2SO3H) = N[C@@H](Cc1ccc(CS(=O)(=O)O)cc1)C(=O)O; sY = N[C@@H](Cc1ccc(OS(=O)(=O)O)cc1)C(=O)O; C18 diacid = O=C(O)CCCCCCCCCCCCCCCCC(=O)*; γGlu = O=C(O)[C@H](CCC(=O)[*:2])N[*:1]; NMeF = CN[C@@H](Cc1ccccc1)C(=O)O; dNMeD = CN[C@H](CC(=O)O)C(=O)O; Nle = CCCC[C@H](N)C(=O)O; AEEA = NCCOCCOCC(=O)O
MEASUREMENT TYPE: EC50

Query :: Form field: reported EC50 of CCCC[C@H](NC(=O)[C@H](Cc1c[nH]c2ccccc12)NC(=O)CNC(=O)[C@H](CC(C)C)NC(=O)[C@H](Cc1ccc(OS(=O)(=O)O)cc1)NC(=O)[C@H](CC(=O)O)NC(=O)COCCOCCNC(=O)COCCOCCNC(=O)CC[C@H](NC(=O)CCCCCCCCCCCCCCCCC(=O)O)C(=O)O)C(=O)N(C)[C@H](CC(=O)O)C(=O)N(C)[C@@H](Cc1ccccc1)C(N)=O
Result :: 170 nM

Query :: Form field: reported EC50 of CCCC[C@H](NC(=O)[C@H](Cc1ccc(CS(=O)(=O)O)cc1)NC(=O)[C@H](CC(=O)O)NC(=O)COCCOCCNC(=O)COCCOCCNC(=O)CC[C@H](NC(=O)CCCCCCCCCCCCCCCCC(=O)O)C(=O)O)C(=O)NCC(=O)N[C@@H](Cc1c[nH]c2ccccc12)C(=O)N[C@@H](CCCC)C(=O)N(C)[C@H](CC(=O)O)C(=O)N(C)[C@@H](Cc1ccccc1)C(N)=O [Example 3] ({C18 diacid-γGlu-AEEA-AEEA}-D[Phe(4-CH2SO3H)][Nle]GW[Nle][dNMeD][NMeF]-NH2)
Result :: > 1000 nM

Query :: Form field: reported EC50 of CC(C)C[C@H](NC(=O)[C@H](Cc1ccc(OS(=O)(=O)O)cc1)NC(=O)[C@@H](N)CC(=O)O)C(=O)NCC(=O)N[C@@H](Cc1c[nH]c2ccccc12)C(=O)N[C@@H](CCC(N)=O)C(=O)N(C)[C@H](CC(=O)O)C(=O)N(C)[C@@H](Cc1ccccc1)C(N)=O [Example 62] (H-D[sY]LGWQ[dNMeD][NMeF]-NH2)
Result :: > 1000 nM
